# assay_overview: Cytotoxicity on RAW 264.7 cells (CCK-8 method)
# Type: cell-based, mouse
# condition: mouse, RAW 264.7 cells; drug concentration required to cause median cytotoxicity, RAW 264.7
readout_kind: CC50 at 4 h

                                   compound  measurement
0  CCOc1cc2c(cc1OC)CCN(C=O)[C@H]2CCc1c[nH]c2ccc(OC)cc12 [(S)-C8]      > 50 µM
1  COc1cc2c(cc1OC)[C@H](CCc1c[nH]c3cc(F)ccc13)N(C=O)CC2 [(S)-C6]      > 50 µM
2  CCOc1cc([C@@H](CS(C)(=O)=O)N2C(=O)c3cccc(NC(C)=O)c3C2=O)ccc1OC [Apremilast, reference compound]      > 10 µM
3  COc1cc2c(cc1OC)[C@H](CCc1c[nH]c3ccccc13)N(C=O)CC2 [(S)-A1]      > 50 µM
4  CCOc1cc2c(cc1OC)CCN(C=O)[C@H]2CCc1c[nH]c2cc(C)ccc12 [(S)-C7]      > 50 µM

* * *

# Test system: RAW 264.7 cells
# assay_overview: Cytotoxicity on RAW 264.7 cells (CCK-8 method)
# Type: cell-based, mouse
# condition: RAW 264.7, 50 μM
readout_kind: Cell survival rate/% (%)

>>> print(df.to_string())
                                   compound          readout_kind  readout_units  measurement
0  COc1cc2c(cc1OC1CCCC1)C(CCc1c[nH]c3cc(C)ccc13)N(C=O)CC2 (stereo not shown) [Compound C3]  Cell survival rate/%              %        112.6
1  CCOc1cc2c(cc1OC)CCN(C=O)C2CCc1c[nH]c2ccccc12 (stereo not shown) [Compound A4]  Cell survival rate/%              %         95.3
2  COC(=O)CN1CCc2cc(OC)c(OC)cc2C1CCc1c[nH]c2ccccc12 (stereo not shown) [Compound B5]  Cell survival rate/%              %        103.8
3  COc1cc2c(cc1OCC1CC1)[C@H](CCc1c[nH]c3cc(C)ccc13)N(C=O)CC2 [(S)-C4]  Cell survival rate/%              %         77.3

* * *

inhibition at 0.5 µM overview
# Test system: tumor necrosis factor-α secretion in RAW 264.7 cells
# assay_overview: Inhibition of LPS-stimulated tumor necrosis factor-α secretion in RAW 264.7 cells (ELISA)
# Type: cell-based, mouse
# condition: Mus musculus, RAW264.7, 4 h, read-out: Tumor necrosis factor-α inhibition rate/%
readout_kind: inhibition at 0.5 µM (%)

>>> df
                                   compound                            assayed_target          readout_kind  readout_units  measurement
0  COc1cc2c(cc1OC)[C@H](Cc1c[nH]c3ccccc13)N(C(=O)CS(C)(=O)=O)CC2 [(S)-C13]  tumor necrosis factor-α secretion in RAW 264.7 cells  inhibition at 0.5 µM              %           -3
1  CCOc1cc2c(cc1OC)CCN(C=O)[C@H]2Cc1c[nH]c2ccc(C)cc12 [(S)-C17]  tumor necrosis factor-α secretion in RAW 264.7 cells  inhibition at 0.5 µM              %        -32.2
2  CCOc1cc2c(cc1OC)CCN(C(=O)COC)[C@H]2Cc1c[nH]c2ccccc12 [(S)-C16]  tumor necrosis factor-α secretion in RAW 264.7 cells  inhibition at 0.5 µM              %          2.6
3  COc1cc2c(cc1OC1CCCC1)C(CCc1c[nH]c3ccc(Br)cc13)N(C=O)CC2 (stereo not shown)  tumor necrosis factor-α secretion in RAW 264.7 cells  inhibition at 0.5 µM              %          2.8

Data provenance: patent US12145923B2
